target: Glutamate NMDA receptor; GRIN1/GRIN2B (Homo sapiens, UniProt Q05586+Q13224); test: Antagonist activity at recombinant NR1/NR2B receptor expressed in Xenopus laevis oocytes
Sequence (Q13224 whole entry, other chains not shown): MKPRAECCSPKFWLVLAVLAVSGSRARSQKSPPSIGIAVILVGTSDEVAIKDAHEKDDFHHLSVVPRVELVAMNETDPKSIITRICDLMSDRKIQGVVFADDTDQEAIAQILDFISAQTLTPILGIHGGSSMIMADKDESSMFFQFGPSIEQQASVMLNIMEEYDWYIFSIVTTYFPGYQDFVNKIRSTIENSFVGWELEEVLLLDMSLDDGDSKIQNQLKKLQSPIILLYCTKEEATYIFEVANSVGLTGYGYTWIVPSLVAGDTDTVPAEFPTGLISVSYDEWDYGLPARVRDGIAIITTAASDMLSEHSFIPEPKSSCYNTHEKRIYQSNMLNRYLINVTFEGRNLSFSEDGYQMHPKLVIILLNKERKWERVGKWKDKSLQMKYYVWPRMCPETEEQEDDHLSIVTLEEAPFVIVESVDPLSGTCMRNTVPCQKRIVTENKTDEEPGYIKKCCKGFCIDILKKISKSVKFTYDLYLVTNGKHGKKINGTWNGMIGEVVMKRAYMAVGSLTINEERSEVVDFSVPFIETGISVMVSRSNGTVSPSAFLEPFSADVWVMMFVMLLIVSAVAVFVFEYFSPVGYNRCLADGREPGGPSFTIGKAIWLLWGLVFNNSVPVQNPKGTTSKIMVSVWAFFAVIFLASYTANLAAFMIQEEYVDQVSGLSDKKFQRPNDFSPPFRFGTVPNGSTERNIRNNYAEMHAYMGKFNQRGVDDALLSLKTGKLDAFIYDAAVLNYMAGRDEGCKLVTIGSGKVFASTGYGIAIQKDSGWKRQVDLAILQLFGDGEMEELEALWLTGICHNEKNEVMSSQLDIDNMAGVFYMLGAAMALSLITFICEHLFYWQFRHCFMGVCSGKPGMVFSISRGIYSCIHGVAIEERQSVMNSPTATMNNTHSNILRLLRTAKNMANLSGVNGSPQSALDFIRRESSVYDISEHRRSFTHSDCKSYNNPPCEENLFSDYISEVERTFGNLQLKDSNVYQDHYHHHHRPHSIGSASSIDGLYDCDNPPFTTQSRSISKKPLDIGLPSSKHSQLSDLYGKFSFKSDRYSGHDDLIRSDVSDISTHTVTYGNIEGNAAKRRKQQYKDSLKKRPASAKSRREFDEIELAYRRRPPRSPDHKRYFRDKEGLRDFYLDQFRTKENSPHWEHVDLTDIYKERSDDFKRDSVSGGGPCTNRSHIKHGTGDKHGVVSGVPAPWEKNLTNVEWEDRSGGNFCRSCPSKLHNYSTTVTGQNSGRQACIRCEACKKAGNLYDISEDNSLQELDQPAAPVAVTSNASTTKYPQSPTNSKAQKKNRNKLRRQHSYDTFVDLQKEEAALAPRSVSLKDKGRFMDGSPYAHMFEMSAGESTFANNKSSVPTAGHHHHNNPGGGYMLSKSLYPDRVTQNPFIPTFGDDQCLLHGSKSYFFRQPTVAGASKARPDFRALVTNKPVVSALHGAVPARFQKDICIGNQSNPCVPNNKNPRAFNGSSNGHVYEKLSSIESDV
assayReadout: IC50
Field: value (include unit after the number)

Looking up `NCCCCNCCCCNCCCCNC(=O)N1c2ccccc2CCc2ccccc21` , I see its IC50 listed as 142 nM

---

target: Glutamate NMDA receptor; GRIN1/GRIN2B (Homo sapiens, UniProt Q05586+Q13224); experiment: Antagonist activity at recombinant NR1/NR2B receptor expressed in Xenopus laevis oocytes
Rule for this label: met means IC50 is less than 200 nM; not met means IC50 is at least 200 nM.

input: Just wondering, is IC50 of `NCCCNCCCCNCCCNC(=O)N1c2ccccc2Sc2ccccc21` below 200 nM?
output: not met

input: API: query returns whether the compound falls strictly under 200 nM in IC50. Query: `NCCCNCCCCNCCCNC(=O)N1c2ccccc2CCc2ccccc21`
output: not met

input: Determine whether this compound shows IC50 lower than 200 nM (ties excluded): `NCCCCNCCCNCCCCNC(=O)N1c2ccccc2C=Cc2ccccc21`
output: not met
